Items are presented alongside their recorded pIC50.
- target-system: Neutrophil collagenase (Homo sapiens)
- Sequence (P22894 whole entry, the tested form may be a part): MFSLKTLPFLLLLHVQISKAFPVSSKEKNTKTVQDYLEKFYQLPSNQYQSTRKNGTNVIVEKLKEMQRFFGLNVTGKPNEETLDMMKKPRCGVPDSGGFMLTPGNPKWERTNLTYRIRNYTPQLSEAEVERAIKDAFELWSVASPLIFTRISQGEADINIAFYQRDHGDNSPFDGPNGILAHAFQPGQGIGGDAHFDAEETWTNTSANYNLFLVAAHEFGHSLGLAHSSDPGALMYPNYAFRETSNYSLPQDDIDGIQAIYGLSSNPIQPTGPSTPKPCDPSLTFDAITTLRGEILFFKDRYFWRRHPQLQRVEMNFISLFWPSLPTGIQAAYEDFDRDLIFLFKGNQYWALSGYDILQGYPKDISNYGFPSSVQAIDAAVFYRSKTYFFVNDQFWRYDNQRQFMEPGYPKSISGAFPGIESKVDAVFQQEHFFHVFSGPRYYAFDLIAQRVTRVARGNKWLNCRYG
- method-notes: Inhibition of recombinant human MMP8 catalytic domain (Phe99 to Gln269 residues) expressed in Escherichia coli cells using Mca-Pro-Leu-Gly-Leu-Dpa-Ala-Arg-NH2/TQ3-GABA-Pro-Cha-Abu-Smc-His-Ala-Dab(6'-TAMRA)-Ala-Lys-NH2 as fluorogenic substrate preincubated for 15 mins followed by substrate addition measured after 2 to 4 hrs by fluorometric assay
Scale: negative log10 of molar concentration, which is what pIC50 denotes.

Noted for Cc1cccc2nc(-c3cccc(NC(=O)CCCc4ccccc4)c3)[nH]c12 : its pIC50 reads 4.39

Noted for Cc1ccc2nc(-c3ccc(NC(=O)c4cccc([N+](=O)[O-])c4)cc3)[nH]c2c1 : its pIC50 reads 4.68

Noted for O=C(CCc1ccccc1)Nc1cccc(-c2nc3ccc(Br)cc3[nH]2)c1 : its pIC50 reads 4.90

All figures here come from ChEMBL document CHEMBL4616594.
